- experiment_description: Miscibility of amines with water in the presence of CO2 (Example 5B)
- Format: physicochemical
- experimental_setup: CO2 bubbled through amine/water mixture for at least one hour
readout: miscibility with water after CO2 treatment

Worked cases, miscibility with water after CO2 treatment given:
CN(C)Cc1cc(CN(C)C)cc(CN(C)C)c1; single-phase
CCCN(C)CCC; single-phase
CN(C)C1CCCCC1; single-phase
CN(C)CC1CC(CN(C)C)CC(CN(C)C)C1 (stereo not drawn); single-phase
CCCN(CC)CCCCN(CC)CCC; single-phase

Ask: Entry CN(C)c1ccccc1 [N,N-dimethylaniline, reference compound] has what miscibility with water after CO2 treatment?
Reply: biphasic

Ask: GET /values?readout=miscibility with water after CO2 treatment&item= CCN(CC)CC
Reply: single-phase

Ask: Which measured miscibility with water after CO2 treatment value corresponds to CCCCN(C)C ?
Reply: single-phase

Ask: Can you look up the measured miscibility with water after CO2 treatment of CCN(CC)C1CCCCC1 for me?
Reply: became water-miscible
